Each recorded value in this set is attributed to PubChem BioAssay (NCI).

tested on: UACC-257 melanoma; assay: NCI tumour cell line growth inhibition, 48 h
result type: TGI

GET /values?readout=TGI&system=UACC-257 melanoma&item= "CCOC(=O)C1=C(NC(C)(C)C)OCC1=O"
> 100 µM

Next: "COc1cccc(-c2cccc(SC)n2)n1"
98.9 µM

Next: Cc1cc(=O)[nH]c(NN2C(Cl)C(=O)C2c2cccc([N+](=O)[O-])c2)n1 (configuration not stated)
> 100 µM

Next: "COc1ccc(OC)c(NC(=O)C(=O)Nn2c(=S)[nH]c3ccccc3c2=O)c1"
> 100 µM

Next: NC1=NC2(O)c3ccccc3C(=O)C2(O)N1 (configuration not stated)
> 100 µM

Next: "Cn1c(=O)c2c(nc(C[N+]3([O-])CCOCC3)n2C)n(C)c1=O"
> 100 µM

Next: "N=C(N)c1ccc(-c2ccc(-c3ccc(Cl)cn3)s2)cc1"
3.62 µM

Next: "Cc1ccc(S(=O)(=O)NC(=O)NCC(=O)NCC(=O)O)cc1"
> 100 µM

Next: O=C1C(Cl)C(c2ccc(Cl)cc2)N1n1cnc2ccccc2c1=O (configuration not stated)
> 100 µM

Next: "C#CCOc1ccc2ncnc(Nc3ccc(NC(=O)CCl)cc3)c2c1"
38.4 µM

Next: "CC(C)(C)C1CCC2(CC1)CCN(CCCN1CCOCC1)CC2"
31.1 µM

Next: COc1cc2c(cc1OC)C1C(O)C(OC)C=C3CC[N+](C)(C2)C31 (configuration not stated)
> 100 µM

Next: "O=C(CSCC(=O)N/N=C/c1cccc(OCc2ccccc2)c1)N/N=C/c1cccc(OCc2ccccc2)c1"
> 85.1 µM

Next: "CS(=O)(=O)OCCN(CCOS(C)(=O)=O)c1ccc(C=Nc2ccc3oc(=O)ccc3c2)cc1"
26.9 µM

Next: "Cc1nccc2c1cnc1ccnn12"
> 100 µM

Next: "CN(C)[C@@H]1C(=O)C(C(=O)NCNCCCC(=O)O)=C(O)[C@@]2(O)C(=O)C3=C(O)c4c(O)cccc4[C@@](C)(O)[C@H]3C[C@@H]12"
> 100 µM

Next: Cc1ccc(S(=O)(=O)[N-]C2C(=O)c3ccccc3C(=O)C2[n+]2cccc(C(N)=O)c2)cc1 (configuration not stated)
> 100 µM

Next: CS(=O)c1ccc(-c2nc(-c3ccc(F)cc3)c(-c3ccncc3)[nH]2)cc1 (configuration not stated)
41.6 µM

Next: "CC1=NN2C(=O)CC(=O)N=C2S1"
> 100 µM

Next: CN1CC2=C(NC(=S)NC2c2ccc(Cl)cc2)/C(=C/c2ccc(Cl)cc2)C1 (configuration not stated)
43.2 µM

Next: COC(=O)/C(C#N)=C1\NC(=O)CC(c2ccccc2)C1C#N (configuration not stated)
> 100 µM

Next: "CCOC(=O)c1nnsc1NC(=O)Nc1ccc(Cl)cc1"
> 100 µM

---

system: 786-0 renal; experiment: NCI tumour cell line growth inhibition, 48 h
Where a SMILES comes first, the peptide text is derived from it. [ ]: non-standard residue; d: D form. The star is where a group is joined. ξ: configuration not given here. ξPhe(4-NO2) = NC(Cc1ccc([N+](=O)[O-])cc1)C(=O)O; Boc = CC(C)(C)OC(=O)*; OBn = c1ccc(CO*)cc1
Please provide measured TGI for the entries that follow.

Fill in: TGI of "CCC(CC)C(=O)OC[n+]1cccc(-c2c(COC(=O)NC(C)C)c(COC(=O)NC(C)C)c3n2CCC3)c1" is ___
> 100 µM

Next: COc1ccc(NC(=O)c2sc3nc(C)c(C(O)c4ccc(OC)cc4)cc3c2N)cc1 (stereo unspecified)
> 50 µM

Next: CC(C)(C)OC(=O)NC(Cc1ccc([N+](=O)[O-])cc1)C(=O)NCC(=O)OCc1ccccc1 (stereo unspecified) (Boc-[ξPhe(4-NO2)]-Gly-OBn)
33.8 µM

Next: "COC(C/C(=C/CO[Si](C(C)C)(C(C)C)C(C)C)C(=O)Nc1ccccc1I)OC"
> 100 µM

Next: "O=C1C(Cl)=C(Nc2cccc(C(F)(F)F)c2)C(=O)N1Cc1ccccc1Cl"
16.5 µM

Next: CC1=CC2(O)OC3(CC2=C(C)C)C(C)CCC13 (stereo unspecified)
> 100 µM

Next: "O=C(c1ccco1)c1c(C(F)(F)F)nc2cc(C(F)(F)F)ccc2[n+]1[O-]"
> 100 µM

Next: "O=C(Nc1cccc(C(F)(F)F)c1)c1cccc(NC2=C(Cl)C(=O)N(Cc3ccccc3)C2=O)c1"
> 100 µM

Next: "CCOC(=O)N1C/C(=C/c2ccc(OC)cc2)C(=O)/C(=C/c2ccc(OC)cc2)C1"
3.4 µM

Next: "CS(=O)(=O)c1[nH]nc2[nH]c(=O)[nH]c(=O)c12"
> 10 µM

Next: "Cc1[nH]n(-c2nc3c(c(=O)[nH]2)CCC3)c(=O)c1CCO"
> 100 µM

Next: "COc1ccc2[nH]c(-c3cccc(N(C)C)c3)cc(=O)c2c1"
> 100 µM

Next: "Cc1[nH]c(=O)nc(CC(O)(c2ccccc2)c2ccccc2)c1-c1ccccc1"
> 100 µM

Next: N#CCC(=O)N/N=C1/C(=O)NC(=O)C(=O)C1c1nc2ccccc2s1 (stereo unspecified)
> 100 µM

Next: O=C1C=CN(C2OC(CO)C(O)C2O)C(=O)C1 (stereo unspecified)
1260 µM

Next: "NC(=O)c1csc(CCCCCCc2nc(C(N)=O)cs2)n1"
> 73.7 µM

Next: C[C@@H]1C[C@@H](O)[C@@]2(O)C13CC(=O)OC(C3)[C@@H](C)[C@@]2(C)CO (stereo partly specified)
> 100 µM

Next: CN(C)c1ncnc2c1ncn2C1C=CC(COS(N)(=O)=O)C1 (stereo unspecified)
> 100 µM

Next: "OCCSCc1cc2c(O)c(c1)Cc1cc(CSCCO)cc(c1O)Cc1cc(CSCCO)cc(c1O)Cc1cc(CSCCO)cc(c1O)C2"
12.5 µM

Next: COC(=O)C1=C(c2cc(OC)c(OC)c(OC)c2)OC(c2cc(OC)c(OC)c(OC)c2)C1COC(C)=O (stereo unspecified)
> 100 µM

Next: "CCOC(=O)c1cc2cc(NC(=O)c3cc4cc([N+](=O)[O-])ccc4n3C)ccc2n1C"
31.9 µM

Next: C[C@H]1C(OCCOC2O[C@@H]3O[C@@]4(C)CC[C@H]5[C@H](C)CCC([C@H]2C)[C@@]35O4)O[C@@H]2O[C@@]3(C)CC[C@H]4[C@H](C)CCC1[C@@]24O3 (stereo partly specified)
> 100 µM

Next: "CN(C)CCCSc1c2ccccc2nc2cc(NCC(=O)Nc3ccccc3-c3ccccc3NC(=O)CNc3ccc4c(SCCCN(C)C)c5ccccc5nc4c3)ccc12"
> 100 µM

Next: "O=C(CCCNC(=O)OCc1ccccc1)OCc1ccc2c(c1)C(=O)c1ccccc1C2=O"
> 56.2 µM

Next: COC(=O)C(/C(=N/N)C(=O)Nc1cc(Cl)c(Cl)cc1Cl)c1nc2ccc(Cl)cc2[nH]c1=O (stereo unspecified)
> 100 µM

Next: "CCOc1ccc(N/C(=C(/C(Cl)=C(/Cl)NCCO)[N+](=O)[O-])n2nnc3ccccc32)cc1"
81.7 µM

Next: "C[C@@H]1CC[C@H]2C(COC/C=C/COCC3=C(C(F)(F)F)O[C@@H]4O[C@@]5(C)CC[C@H]6[C@H](C)CC[C@@H]3[C@@]46OO5)=C(C(F)(F)F)O[C@@H]3O[C@@]4(C)CC[C@@H]1[C@]32OO4"
> 100 µM

Next: "Cc1ccccc1-n1c(/C=C\c2ccccn2)nc2ccccc2c1=O"
64.4 µM

Next: CC(=O)OCC1OC(n2c3c(c(-c4ccc(Cl)cc4)c(C#N)c2=S)C(=O)CC(C)(C)C3)C(OC(C)=O)C(OC(C)=O)C1OC(C)=O (stereo unspecified)
> 88.7 µM

Next: COc1ccc(C2CCC(Cl)(OC)CC2C=O)cc1 (stereo unspecified)
> 100 µM

Next: OCC(O)COc1c(Cl)ccc(Cl)c1Cl (stereo unspecified)
> 100 µM

Next: "O=C(NCCN1CCOCC1)Nc1ccc(-c2cc3c(Nc4ccc(Oc5cccc(C(F)(F)F)c5)c(Cl)c4)ncnc3s2)cc1"
1.6 µM

Next: CC(=O)OC1OC2C(NC(=O)OC(C)(C)C)C1CC2(OCc1ccccc1)OCc1ccccc1 (stereo unspecified)
56.8 µM

Next: "COc1ccc(/C(Cl)=C(\C=O)c2ccc(OC)c(OC)c2)cc1OC"
> 100 µM

Next: "COc1ccc(CCNCc2cccc(OC)c2OC)cc1OC"
> 100 µM

Next: "Cc1cc(S(=O)(=O)Nc2nc(N)nc(N3CCOCC3)n2)c(SCC(=O)O)cc1Cl"
> 10 µM

---

system: OVCAR-3 ovarian; assay: NCI tumour cell line growth inhibition, 48 h
result type: TGI (µM)
Write the answer as a number in µM, unit excluded.

Fill in: TGI of CC(C)=CCC/C(C)=C/CC/C(=C/COP(=O)(OCc1ccc([N+](=O)[O-])o1)N(C)CCCCCl)CC=C(C)C (stereo not given) is ___
29.4

Next: "C=CC[Se]C(=O)Cc1c(C)n(C(=O)c2ccc(Cl)cc2)c2ccc(OC)cc12"
3.24

Next: CC1=Nc2c([nH]c(=S)[nH]c2=O)NC(c2ccc(Cl)c(Cl)c2)C1 (stereo not given)
38.3

Next: "COC(=O)[C@@H](Cc1c[nH]c2ccccc12)NC(=O)/C=C/c1ccccc1"
7.78

Next: "COc1cc2nc(-c3ccc(-n4cncc4-c4ccc(N)cc4)cc3)sc2c(OC)c1OC"
15.1

Next: COc1cc2c(cc1OC)C(Cl)C(c1ccc(Cl)cc1)=C2Cl (stereo not given)
30.1

Next: "COc1ccc(NC(=O)Nc2ccc(Nc3nc(C)cc(Nc4ccc(C)cc4)n3)cc2)cc1"
2.81

Next: CCCC(=O)NC(c1ccc2c(c1)OCO2)c1ccc2cccnc2c1O (stereo not given)
15.4

Next: Cc1cc(=O)[nH]c(NN2C(Cl)C(=O)C2c2cccc([N+](=O)[O-])c2)n1 (stereo not given)
32.3
